Target: thyroxine-binding globulin (TBG) (Homo sapiens, UniProt P05543)
ENDPOINT NAME: IC50 (µM)

>>> test_result("CC(C)(c1ccc(O)cc1)c1ccc(O)cc1 [BPA, bisphenol-A]")
172

I = N[C@@H](Cc1cc(I)c(Oc2cc(I)c(O)c(I)c2)c(I)c1)C(=O)O [T4, 3,3′,5,5′-tetraiodothyronine]
II = CC(C)(c1cc(Br)c(O)c(Br)c1)c1cc(Br)c(O)c(Br)c1 [TBBPA]
Recorded IC50 values differ for I and II ; which one is higher? // respond with label for picked entry
II

----------
Molecular target: Human TTR (Homo sapiens)
Construct: Transthyretin (prealbumin, TTR) >95% from human plasma; purchased Sigma Aldrich (Zwijndrecht, The Netherlands); host or cells: human plasma
Assay: Optimized competitive TTR-binding assay with FITC-T4 (fluorescence intensity readout)
Conditions: TTR Ki [95% CI], 55 nM FITC-T4, 30 nM TTR, RT (60 min)
The reader will find reported Ki values listed item by item below.
Reply with just the number (in nM).

>>> test_result("O=S(=O)(O)C(F)(F)C(F)(F)C(F)(F)C(F)(F)C(F)(F)C(F)(F)C(F)(F)C(F)(F)F")
127

Continue with the next molecule.
Find the measured Ki: item O=C(O)C(F)(F)C(F)(F)C(F)(F)C(F)(F)C(F)(F)C(F)(F)C(F)(F)F , target or system Human TTR (Homo sapiens).
304

----------
Target: Human TTR (Homo sapiens, UniProt P02766)
Construct: Transthyretin (prealbumin, TTR) >95% from human plasma; purchased Sigma Aldrich (Zwijndrecht, The Netherlands); host or cells: human plasma
Test: Optimized competitive TTR-binding assay with FITC-T4 (fluorescence intensity readout)
Conditions: mixture of highest human blood concentrations of five model compounds
ENDPOINT NAME: Contribution to T4EQ concentration (TTR binding) (%)

Observe how each entry below is paired with its result.
>>> test_result("O=C(O)C(F)(F)C(F)(F)C(F)(F)C(F)(F)C(F)(F)C(F)(F)C(F)(F)F")
6.6
>>> test_result("O=S(=O)(O)C(F)(F)C(F)(F)C(F)(F)C(F)(F)C(F)(F)C(F)(F)C(F)(F)C(F)(F)F")
50.9

A = CC(C)(c1ccc(O)cc1)c1ccc(O)cc1
B = CC(C)(c1cc(Br)c(O)c(Br)c1)c1cc(Br)c(O)c(Br)c1
Recorded Contribution to T4EQ concentration (TTR binding) values differ for A and B ; which one is higher? // respond with label for picked entry
B

----------
Target: Human TTR (Homo sapiens, UniProt P02766)
Construct: Transthyretin (prealbumin, TTR) >95% from human plasma; purchased Sigma Aldrich (Zwijndrecht, The Netherlands); host or cells: human plasma
Test: Optimized competitive TTR-binding assay with FITC-T4 (fluorescence intensity readout)
Conditions: T4EQi = highest human blood concentration x T4-REPi
ENDPOINT NAME: T4EQ concentration (TTR binding) (nM)

Observe how each entry below is paired with its result.
>>> test_result("O=C(O)C(F)(F)C(F)(F)C(F)(F)C(F)(F)C(F)(F)C(F)(F)C(F)(F)F [PFOA, perfluorooctanoic acid]")
1.26
>>> test_result("O=S(=O)(O)C(F)(F)C(F)(F)C(F)(F)C(F)(F)C(F)(F)C(F)(F)C(F)(F)C(F)(F)F [PFOS, Perfluorooctanesulfonic acid]")
9.73

a = CC(C)(c1cc(Br)c(O)c(Br)c1)c1cc(Br)c(O)c(Br)c1 [TBBPA]
b = CC(C)(c1ccc(O)cc1)c1ccc(O)cc1 [BPA, bisphenol-A]
Hey, which is lower on measured T4EQ concentration (TTR binding), a or b ? // respond with label for picked entry
b
(b: 0.16 nM, a: 3.73 nM)

----------
Target: Human TTR (Homo sapiens)
Construct: Transthyretin (prealbumin, TTR) >95% from human plasma; purchased Sigma Aldrich (Zwijndrecht, The Netherlands); host or cells: human plasma
Experiment: Optimized competitive TTR-binding assay with FITC-T4 (fluorescence intensity readout)
Settings: TTR Ki [95% CI], 55 nM FITC-T4, 30 nM TTR, RT (5 min)
ENDPOINT NAME: pKi
// pKi is dimensionless: -log10 of concentration (M)

>>> test_result("O=S(=O)(O)C(F)(F)C(F)(F)C(F)(F)C(F)(F)C(F)(F)C(F)(F)C(F)(F)C(F)(F)F [PFOS, Perfluorooctanesulfonic acid]")
6.84

Continue with the next compound.
Which measured pKi value corresponds to O=C(O)C(F)(F)C(F)(F)C(F)(F)C(F)(F)C(F)(F)C(F)(F)C(F)(F)F [PFOA, perfluorooctanoic acid] ?
6.57

----------
Molecular target: thyroxine-binding globulin (TBG) (Homo sapiens)
Construct: purchased Bio-rad Laboratories, Inc. (Veenendaal, The Netherlands)
Test: Competitive TBG-binding assay with FITC-T4 (fluorescence polarization readout)
Conditions: RT, 15 min, preliminary temperature experiment (N = 2); read-out: TBG Ki
ENDPOINT NAME: Ki (nM)
Reply with just the number (in nM).

Find the measured Ki: item N[C@@H](Cc1cc(I)c(Oc2cc(I)c(O)c(I)c2)c(I)c1)C(=O)O [T4, 3,3′,5,5′-tetraiodothyronine] , target or system thyroxine-binding globulin (TBG) (Homo sapiens).
2.9

----------
Biological target: Human TTR (Homo sapiens)
Construct: Transthyretin (prealbumin, TTR) >95% from human plasma; purchased Sigma Aldrich (Zwijndrecht, The Netherlands); host or cells: human plasma
Assay: Optimized competitive TTR-binding assay with FITC-T4 (fluorescence intensity readout)
Details: TTR IC50 [95% CI], 55 nM FITC-T4, 30 nM TTR, RT (5 min)
ENDPOINT NAME: pIC50
// pIC50 is dimensionless: -log10 of concentration (M)

>>> test_result("O=C(O)C(F)(F)C(F)(F)C(F)(F)C(F)(F)C(F)(F)C(F)(F)C(F)(F)F")
6.30

Which measured pIC50 value corresponds to O=S(=O)(O)C(F)(F)C(F)(F)C(F)(F)C(F)(F)C(F)(F)C(F)(F)C(F)(F)C(F)(F)F ?
6.72

----------
Target: Human TTR (Homo sapiens, UniProt P02766)
Construct: Transthyretin (prealbumin, TTR) >95% from human plasma; purchased Sigma Aldrich (Zwijndrecht, The Netherlands); host or cells: human plasma
Test: Optimized competitive TTR-binding assay with FITC-T4 (fluorescence intensity readout)
Conditions: 110 nM FITC-T4, 30 nM TTR, RT, 15 min; derived from IC20; average [95% CI]; read-out: TTR Ki
pKi: −log10 of the molar value.
ENDPOINT NAME: pKi

P = CC(C)(c1ccc(O)cc1)c1ccc(O)cc1 [BPA, bisphenol-A]
Q = CC(C)(c1cc(Br)c(O)c(Br)c1)c1cc(Br)c(O)c(Br)c1 [TBBPA]
Recorded pKi values differ for P and Q ; which one is higher? // respond with label for picked entry
Q

----------
Biological target: Human TTR (Homo sapiens)
Construct: Transthyretin (prealbumin, TTR) >95% from human plasma; purchased Sigma Aldrich (Zwijndrecht, The Netherlands); host or cells: human plasma
Assay: Optimized competitive TTR-binding assay with FITC-T4 (fluorescence intensity readout)
Conditions: 110 nM FITC-T4, 30 nM TTR, RT, 15 min; average [95% CI]; read-out: TTR IC50
Experimental: All TTR-binding experiments were performed in black 96-well polystyrene nonbinding plates. Experimental wells and background wells were prepared in triplicate per plate. […] Fluorescence intensity (FI) was measured at λex = 485 ± 20 nm and λem = 528 ± 20 nm (CLARIOstar Plus microplate reader, BMG LABTECH). […]
ENDPOINT NAME: IC50 (µM)

a = CC(C)(c1cc(Br)c(O)c(Br)c1)c1cc(Br)c(O)c(Br)c1
b = CC(C)(c1ccc(O)cc1)c1ccc(O)cc1
Hey, which is lower on measured IC50, a or b ? // respond with label for picked entry
a

----------
Target: Human TTR (Homo sapiens)
Construct: Transthyretin (prealbumin, TTR) >95% from human plasma; purchased Sigma Aldrich (Zwijndrecht, The Netherlands); host or cells: human plasma
Assay: Optimized competitive TTR-binding assay with FITC-T4 (fluorescence intensity readout)
Details: TTR IC50 [95% CI], 55 nM FITC-T4, 30 nM TTR, RT (60 min)
ENDPOINT NAME: IC50 (nM)
Reply with just the number (in nM).

>>> test_result("O=C(O)C(F)(F)C(F)(F)C(F)(F)C(F)(F)C(F)(F)C(F)(F)C(F)(F)F [PFOA, perfluorooctanoic acid]")
459

Continue with the next compound.
Which measured IC50 value corresponds to O=S(=O)(O)C(F)(F)C(F)(F)C(F)(F)C(F)(F)C(F)(F)C(F)(F)C(F)(F)C(F)(F)F [PFOS, Perfluorooctanesulfonic acid] ?
196

----------
Target: thyroxine-binding globulin (TBG) (Homo sapiens)
Construct: purchased Bio-rad Laboratories, Inc. (Veenendaal, The Netherlands)
Sequence (P05543 21-415): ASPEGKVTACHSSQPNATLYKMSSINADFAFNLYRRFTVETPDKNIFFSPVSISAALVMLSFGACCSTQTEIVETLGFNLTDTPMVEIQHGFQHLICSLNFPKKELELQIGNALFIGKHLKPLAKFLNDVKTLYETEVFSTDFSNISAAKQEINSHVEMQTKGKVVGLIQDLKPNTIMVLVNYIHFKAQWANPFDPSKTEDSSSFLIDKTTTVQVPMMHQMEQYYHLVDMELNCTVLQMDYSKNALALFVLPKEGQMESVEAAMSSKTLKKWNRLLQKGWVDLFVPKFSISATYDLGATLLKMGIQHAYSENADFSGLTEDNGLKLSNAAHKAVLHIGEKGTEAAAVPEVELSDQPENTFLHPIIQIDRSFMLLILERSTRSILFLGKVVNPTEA
Assay: Competitive TBG-binding assay with FITC-T4 (fluorescence polarization readout)
Details: 5 nM FITC-T4, 10 nM TBG, RT, 15 min; descriptive model (Graphpad); average [95% CI]; read-out: TBG IC20
ENDPOINT NAME: IC20 (µM)

>>> test_result("Oc1cc(Cl)ccc1Oc1ccc(Cl)cc1Cl [Triclosan, triclosan]")
0.284

I = CC(C)(c1ccc(O)cc1)c1ccc(O)cc1 [BPA, bisphenol-A]
II = N[C@@H](Cc1cc(I)c(Oc2cc(I)c(O)c(I)c2)c(I)c1)C(=O)O [T4, 3,3′,5,5′-tetraiodothyronine]
III = CC(C)(c1cc(Br)c(O)c(Br)c1)c1cc(Br)c(O)c(Br)c1 [TBBPA]
hey, can you rank those compounds up there by IC20? biggest number first please Returns: the labels arranged in the requested order.
I, III, II
(I: 32.6 µM, III: 7.3 µM, II: 0.0092 µM)
